Value source: PubChem BioAssay AID1963848

tested on: 379773-124-R-J2-PDC spheroid viability; assay: Anticancer human tumor 379773-124-R-J2-PDC patient-derived endometrial carcinoma cell line growth inhibition [POLQ]; details: second compound 0.1 µM; first compound 10 µM; active compounds read low; spheroids with HUVEC and MSC;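 also: spheroids exposed to drugs for seven days before readout; percent viability relative to DMSO vehicle control taken as 100%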
Task for the reader: assign each of the following compounds its reported viability, T/C.
// return numeric value only (unit: %, not printed)

**Q:** Write down viability, T/C measured for item CC1COCCN1c1cc(C2(S(C)(=N)=O)CC2)nc(-c2ccnc3[nH]ccc23)n1 (stereo not given) + Nc1ccc(C#CCN(C(=O)Cc2ncc(C(F)(F)F)cc2C(F)(F)F)c2ccc(F)cc2)nn1
**A:** 9.47

**Q:** Please indicate viability, T/C recorded for CNCc1ccc(-c2[nH]c3cc(F)cc4c3c2CCNC4=O)cc1 + Nc1ccc(C#CCN(C(=O)Cc2ncc(C(F)(F)F)cc2C(F)(F)F)c2ccc(F)cc2)nn1
**A:** 79.6

**Q:** Provide viability, T/C value for the following compound: CNCc1ccc(-c2[nH]c3cc(F)cc4c3c2CCNC4=O)cc1 + COC1C(OC(N)=O)C(O)C(Oc2ccc3c(O)c(NC(=O)c4ccc(O)c(CC=C(C)C)c4)c(=O)oc3c2C)OC1(C)C
**A:** 82.9

**Q:** Report viability, T/C, nothing else, for this compound: O=C(c1cc(Cc2n[nH]c(=O)c3ccccc23)ccc1F)N1CCN(C(=O)C2CC2)CC1 + Cc1cccc(N(C)C(=O)C2C(O)CCN2c2nc(C)cc(C(F)(F)F)c2C#N)c1
**A:** 42.5

**Q:** Determine its reported viability, T/C: CCCS(=O)(=O)Nc1ccc(F)c(C(=O)c2c[nH]c3ncc(-c4ccc(Cl)cc4)cc23)c1F + Cc1cccc(N(C)C(=O)C2C(O)CCN2c2nc(C)cc(C(F)(F)F)c2C#N)c1
**A:** 58.7

**Q:** Name the recorded viability, T/C of the compound listed here: CCc1cc2c(N3CCc4c(cc(Cn5ccnc5)cc4-c4cn(C)nc4C(F)(F)F)C3=O)cc(C)nc2c(OC)n1 + Nc1ccc(C#CCN(C(=O)Cc2ncc(C(F)(F)F)cc2C(F)(F)F)c2ccc(F)cc2)nn1
**A:** 46.4

**Q:** Report viability, T/C for COc1ccc([C@@H](O)c2cc(-c3ncnc4cc(N5CCOCC5)ccc34)c(F)cc2Cl)nn1 + Nc1ccc(C#CCN(C(=O)Cc2ncc(C(F)(F)F)cc2C(F)(F)F)c2ccc(F)cc2)nn1
**A:** 41.6

**Q:** Annotate the compound O=C(c1cc(Cc2n[nH]c(=O)c3ccccc23)ccc1F)N1CCN(C(=O)C2CC2)CC1 + COC1C(OC(N)=O)C(O)C(Oc2ccc3c(O)c(NC(=O)c4ccc(O)c(CC=C(C)C)c4)c(=O)oc3c2C)OC1(C)C with its measured viability, T/C.
**A:** 48.9

**Q:** Please supply the value of reported viability, T/C for the item CCc1cc2c(N3CCc4c(cc(Cn5ccnc5)cc4-c4cn(C)nc4C(F)(F)F)C3=O)cc(C)nc2c(OC)n1 + COC1C(OC(N)=O)C(O)C(Oc2ccc3c(O)c(NC(=O)c4ccc(O)c(CC=C(C)C)c4)c(=O)oc3c2C)OC1(C)C
**A:** 41.7

**Q:** State its viability, T/C for this compound: CC(C)n1c(=O)n(C)c2cnc3cc(F)c(-c4ccc(OCCCN5CCCCC5)nc4)cc3c21 + Nc1ccc(C#CCN(C(=O)Cc2ncc(C(F)(F)F)cc2C(F)(F)F)c2ccc(F)cc2)nn1
**A:** 73.6

**Q:** Answer with the recorded viability, T/C of COc1cccc2c1C(=O)c1c(O)c3c(c(O)c1C2=O)CC(O)(C(=O)CO)CC3OC1CC(N)C(O)C(C)O1 (stereo not given) + Cc1cccc(N(C)C(=O)C2C(O)CCN2c2nc(C)cc(C(F)(F)F)c2C#N)c1 only.
**A:** 0.84

**Q:** Using known records, supply viability, T/C for CNCc1ccc(-c2[nH]c3cc(F)cc4c3c2CCNC4=O)cc1 + Cc1cccc(N(C)C(=O)C2C(O)CCN2c2nc(C)cc(C(F)(F)F)c2C#N)c1
**A:** 66.9

**Q:** Output measured viability, T/C for this item: COc1cc2cc(C(=O)CCC(=O)O)sc2cc1OC + Cc1cccc(N(C)C(=O)C2C(O)CCN2c2nc(C)cc(C(F)(F)F)c2C#N)c1
**A:** 91.2

**Q:** Give the reported value of viability, T/C for this record: O=c1[nH]cc(F)c(=O)[nH]1 + Nc1ccc(C#CCN(C(=O)Cc2ncc(C(F)(F)F)cc2C(F)(F)F)c2ccc(F)cc2)nn1
**A:** 59.6

**Q:** Assign viability, T/C to the following record: C#Cc1c(F)ccc2cc(O)cc(-c3ncc4c(N5CC6CCC(C5)N6)nc(OCC56CCCN5CC(F)C6)nc4c3F)c12 (stereo not given) + COC1C(OC(N)=O)C(O)C(Oc2ccc3c(O)c(NC(=O)c4ccc(O)c(CC=C(C)C)c4)c(=O)oc3c2C)OC1(C)C
**A:** 95

**Q:** # return recorded viability, T/C for input C=CC(=O)N1CCN(c2nc(=O)n(-c3c(C)ccnc3C(C)C)c3nc(-c4c(O)cccc4F)c(F)cc23)C(C)C1 (stereo not given) + Nc1ccc(C#CCN(C(=O)Cc2ncc(C(F)(F)F)cc2C(F)(F)F)c2ccc(F)cc2)nn1
**A:** 91.7

**Q:** # return recorded viability, T/C for entry CCc1cc2c(N3CCc4c(cc(Cn5ccnc5)cc4-c4cn(C)nc4C(F)(F)F)C3=O)ccnc2c(OC)n1 + COC1C(OC(N)=O)C(O)C(Oc2ccc3c(O)c(NC(=O)c4ccc(O)c(CC=C(C)C)c4)c(=O)oc3c2C)OC1(C)C
**A:** 42.3

**Q:** Hello, please tell me recorded viability, T/C for this one: COc1cc(C2c3cc4c(cc3C(OC3OC5COC(C)OC5C(O)C3O)C3COC(=O)C23)OCO4)cc(OC)c1O (stereo not given) + Nc1ccc(C#CCN(C(=O)Cc2ncc(C(F)(F)F)cc2C(F)(F)F)c2ccc(F)cc2)nn1
**A:** 14.1

**Q:** Query viability, T/C for C=CC(=O)N1CCN(c2nc(=O)n(-c3c(C)ccnc3C(C)C)c3nc(-c4c(O)cccc4F)c(F)cc23)C(C)C1 (stereo not given) + Cc1cccc(N(C)C(=O)C2C(O)CCN2c2nc(C)cc(C(F)(F)F)c2C#N)c1
**A:** 86.1

**Q:** Note viability, T/C for the compound shown: CC1COCCN1c1cc(-c2ccnn2C)c2ccnc(-c3ccn[nH]3)c2n1 (stereo not given) + COC1C(OC(N)=O)C(O)C(Oc2ccc3c(O)c(NC(=O)c4ccc(O)c(CC=C(C)C)c4)c(=O)oc3c2C)OC1(C)C
**A:** 6.55
